- Target Or Test System: c-Kit (Homo sapiens, UniProt P10721)
- Sequence (P10721 26-976): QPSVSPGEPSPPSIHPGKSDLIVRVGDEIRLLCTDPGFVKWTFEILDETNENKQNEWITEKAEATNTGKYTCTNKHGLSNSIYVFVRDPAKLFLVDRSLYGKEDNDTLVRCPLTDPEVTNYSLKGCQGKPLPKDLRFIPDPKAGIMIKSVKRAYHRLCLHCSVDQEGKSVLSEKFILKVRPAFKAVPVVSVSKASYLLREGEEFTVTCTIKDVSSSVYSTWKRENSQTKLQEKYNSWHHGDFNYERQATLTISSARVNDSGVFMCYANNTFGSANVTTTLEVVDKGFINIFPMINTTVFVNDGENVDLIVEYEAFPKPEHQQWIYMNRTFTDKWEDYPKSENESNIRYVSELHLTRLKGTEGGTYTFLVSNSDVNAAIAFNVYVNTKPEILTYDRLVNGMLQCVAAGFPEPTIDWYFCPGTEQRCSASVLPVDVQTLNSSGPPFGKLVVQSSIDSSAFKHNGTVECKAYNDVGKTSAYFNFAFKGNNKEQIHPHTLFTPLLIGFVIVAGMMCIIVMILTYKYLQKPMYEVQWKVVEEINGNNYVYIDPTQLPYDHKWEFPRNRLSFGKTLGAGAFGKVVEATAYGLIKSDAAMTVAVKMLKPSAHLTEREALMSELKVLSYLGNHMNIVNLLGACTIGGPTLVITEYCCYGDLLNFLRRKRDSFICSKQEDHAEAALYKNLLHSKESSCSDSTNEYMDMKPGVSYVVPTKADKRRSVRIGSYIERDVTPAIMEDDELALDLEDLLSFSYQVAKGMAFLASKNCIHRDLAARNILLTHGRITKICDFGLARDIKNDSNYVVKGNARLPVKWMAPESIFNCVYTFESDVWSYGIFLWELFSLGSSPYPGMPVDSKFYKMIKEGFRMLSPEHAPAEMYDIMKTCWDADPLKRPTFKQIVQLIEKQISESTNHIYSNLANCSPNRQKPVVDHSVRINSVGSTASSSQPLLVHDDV
- Test Summary: c-Kit biochemical assay (per US 2007/0032519)
Value Type: IC50

Sample records with IC50:
[[record]]
structure = "COc1cnc2[nH]cc(-c3ccc4ncn(-c5ccccc5)c4c3)c2c1"
value_type = "IC50"
result = "10 to 200 µM"

[[record]]
structure = "COc1cc(-c2cnc3[nH]cc(-c4ccc5ncn(C)c5c4)c3n2)ccn1"
value_type = "IC50"
result = "10 to 200 µM"

[[record]]
structure = "COc1cnc2[nH]cc(-c3ccc4ncn(Cc5ccccc5)c4c3)c2c1"
value_type = "IC50"
result = "1 to 10 µM"

[[record]]
structure = "Cn1cnc2ccc(-c3c[nH]c4ncc(Cl)cc34)cc21"
value_type = "IC50"
result = "10 to 200 µM"

[[record]]
structure = "COc1ccc(-c2cnc3[nH]cc(-c4ccc5[nH]cnc5c4)c3c2)cn1"
value_type = "IC50"
result = "1 to 10 µM"


Let's switch to this molecule now.
IC50 in this record for CC1(COc2cnc3[nH]cc(-c4ccc5[nH]cnc5c4)c3c2)COC1 : 1 to 10 µM

====

- Target Or Test System: c-Kit (Homo sapiens, UniProt P10721)
- Test Summary: c-Kit biochemical assay (per US 2007/0032519)
Item-by-item account of IC50

Sample records with IC50:
[[record]]
structure = "O=C(C1CC1)N1CC=C(c2cnc3[nH]cc(-c4ccc5ncn(C6CCCC6)c5c4)c3n2)C1"
target_or_test_system = "c-Kit (Homo sapiens, UniProt P10721)"
value_type = "IC50"
result = "10 to 200 µM"

[[record]]
structure = "Cc1nn(C(C)C)cc1-c1cnc2[nH]cc(-c3ccc4ncn(C(C)(C)C)c4c3)c2n1"
target_or_test_system = "c-Kit (Homo sapiens, UniProt P10721)"
value_type = "IC50"
result = "0.0001 to 1 µM"

[[record]]
structure = "Cn1cnc2ccc(-c3c[nH]c4ncc(-c5cnc(C6CC6)nc5)cc34)cc21"
target_or_test_system = "c-Kit (Homo sapiens, UniProt P10721)"
value_type = "IC50"
result = "1 to 10 µM"

[[record]]
structure = "O=S(=O)(C1CC1)N1CC=C(c2cnc3[nH]cc(-c4ccc5[nH]cnc5c4)c3c2)CC1"
target_or_test_system = "c-Kit (Homo sapiens, UniProt P10721)"
value_type = "IC50"
result = "1 to 10 µM"

[[record]]
structure = "O=C(C1CC1)N1CC=C(c2cnc3[nH]cc(-c4ccc5ncn(CC(F)(F)F)c5c4)c3n2)C1"
target_or_test_system = "c-Kit (Homo sapiens, UniProt P10721)"
value_type = "IC50"
result = "1 to 10 µM"


IC50 in this record for CC(C)(C)n1cnc2ccc(-c3c[nH]c4ncc(-c5cnc(Cl)nc5)nc34)cc21 : 10 to 200 µM

IC50 in this record for CCn1cnc2ccc(-c3c[nH]c4ncc(OC)cc34)cc21 : 10 to 200 µM

IC50 in this record for CS(=O)(=O)Nc1cccc(-c2cnc3[nH]cc(-c4ccc5ncsc5c4)c3n2)c1 : 1 to 10 µM

IC50 in this record for Clc1cnc2[nH]cc(-c3ccc4nc[nH]c4c3)c2c1 : 1 to 10 µM

IC50 in this record for Cc1cnc2[nH]cc(-c3ccc4nc[nH]c4c3)c2c1 : 1 to 10 µM
